Molecular target: SARS-COV-2 RBD-MMH (SARS-COV-2 RBD extracellular domain with C-terminal myc-myc-hexahistidine tag) (SARS-CoV-2)
property_label: t½ at pH 7.4 (min)
Lab book: enter the figure in min, no units written.

binder	unit_abbrev	t½ at pH 7.4
mAb15162 (antibody, V domains shown) VH: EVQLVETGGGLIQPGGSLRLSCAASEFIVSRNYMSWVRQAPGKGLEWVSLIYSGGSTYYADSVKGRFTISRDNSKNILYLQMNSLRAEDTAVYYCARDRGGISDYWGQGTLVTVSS VL: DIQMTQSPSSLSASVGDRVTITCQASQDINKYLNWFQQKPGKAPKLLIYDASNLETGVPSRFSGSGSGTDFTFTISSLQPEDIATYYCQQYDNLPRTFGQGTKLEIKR	min	3.9
mAb15160 (antibody, V domains shown) VH: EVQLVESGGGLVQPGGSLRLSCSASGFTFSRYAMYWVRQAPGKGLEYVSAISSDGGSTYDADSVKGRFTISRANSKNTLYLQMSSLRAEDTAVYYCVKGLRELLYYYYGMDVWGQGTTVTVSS VL: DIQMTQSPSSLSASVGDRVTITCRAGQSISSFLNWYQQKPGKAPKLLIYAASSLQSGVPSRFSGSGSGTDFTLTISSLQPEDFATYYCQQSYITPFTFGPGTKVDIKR	min	5.3

Moving on to another binder below.
Incoming: In one line, give reported t½ at pH 7.4 of the entry mAb14315 (antibody, V domains shown) VH: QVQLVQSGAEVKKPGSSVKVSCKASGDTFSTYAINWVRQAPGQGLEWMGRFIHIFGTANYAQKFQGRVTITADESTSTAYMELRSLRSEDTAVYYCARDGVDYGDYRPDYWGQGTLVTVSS VL: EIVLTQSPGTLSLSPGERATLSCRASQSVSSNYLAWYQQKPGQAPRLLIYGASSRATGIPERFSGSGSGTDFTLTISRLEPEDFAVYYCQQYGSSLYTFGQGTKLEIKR .
Outgoing: 11.8
